# Test system: Plasmodium berghei
# METHOD NOTES: Screen against P. berghei liver stage (PbLuc), transformed with Luciferase, at 10uM
# Assay type: functional, HepG2
# CONDITION: tested at 10 uM
In all, about 69,000 compounds went through this assay and about 8,600 (12%) showed an effect of 50% or more. The entries come from a sample that favours strong results as a whole.
MEASURED QUANTITY: INHIBITION

[
  {
    "MOLECULE": "CC(C)(C)OC(=O)N1CCN(c2ccc(F)cc2)CC1C(=O)O (stereo unspecified)",
    "SYSTEM": "Plasmodium berghei",
    "MEASURED QUANTITY": "INHIBITION",
    "OBSERVED": "-5.8%"
  },
  {
    "MOLECULE": "CC(C)c1nnc(NC(=O)NC2CCOc3ccccc32)s1 (stereo unspecified)",
    "SYSTEM": "Plasmodium berghei",
    "MEASURED QUANTITY": "INHIBITION",
    "OBSERVED": "32.2%"
  },
  {
    "MOLECULE": "CN(C)C(=O)COC[C@@H]1CC[C@H]2[C@H](CCN2c2ncccn2)O1",
    "SYSTEM": "Plasmodium berghei",
    "MEASURED QUANTITY": "INHIBITION",
    "OBSERVED": "0.542%"
  },
  {
    "MOLECULE": "c1cnc(N2CCOCC3(C2)CN(c2nccs2)CCO3)nc1 (stereo unspecified)",
    "SYSTEM": "Plasmodium berghei",
    "MEASURED QUANTITY": "INHIBITION",
    "OBSERVED": "44.8%"
  },
  {
    "MOLECULE": "CC(=O)N1CC[C@H]2OCC[C@@]2(C(=O)NCCc2ccccn2)C1",
    "SYSTEM": "Plasmodium berghei",
    "MEASURED QUANTITY": "INHIBITION",
    "OBSERVED": "3.81%"
  },
  {
    "MOLECULE": "O=C(NCCCO)Nc1cnc2cc(Cl)ccc2c1O",
    "SYSTEM": "Plasmodium berghei",
    "MEASURED QUANTITY": "INHIBITION",
    "OBSERVED": "54.4%"
  }
]

* * *

# Tested on: Plasmodium berghei
# METHOD NOTES: Screen against P. berghei liver stage (PbLuc), transformed with Luciferase, at 10uM
# Type: functional, HepG2
# CONDITION: tested at 10 uM
Among all 69,000 compounds or so, about 8,600 (12%) showed an effect of 50% or more. Shown is part of a subset that was picked to be rich in strong results.
Catalogue of molecules with associated INHIBITION

[
  {
    "MOLECULE": "Cc1cc(C)n(CC(C)CNC(=O)NCc2c(C)cc(C)[nH]c2=O)n1 (stereo not given)",
    "INHIBITION": "42.3%"
  },
  {
    "MOLECULE": "CCN(Cc1cn(C)nc1-c1ccc2c(c1)OCCO2)CC1CCCO1 (stereo not given)",
    "INHIBITION": "28.5%"
  },
  {
    "MOLECULE": "FC(F)(F)c1cc(N2CCc3ncnc(NC4CC4)c3CC2)ncn1",
    "INHIBITION": "-31.6%"
  },
  {
    "MOLECULE": "CC(C)Nc1ncnc2c1CCN(C(=O)[C@H]1CCCO1)CC2",
    "INHIBITION": "-12.2%"
  },
  {
    "MOLECULE": "Cn1nc(CN2CCCC2)c2c1CN(C(=O)c1cnccn1)CC2",
    "INHIBITION": "43.4%"
  },
  {
    "MOLECULE": "Cc1cccnc1NC(=O)NCc1cccnc1OC(C)C",
    "INHIBITION": "19.4%"
  },
  {
    "MOLECULE": "O=C(N1CCOCC1)N1CCc2ncnc(NC3CC3)c2CC1",
    "INHIBITION": "26.8%"
  },
  {
    "MOLECULE": "CN(C(=O)c1ccco1)c1nc2c(s1)CCCC2",
    "INHIBITION": "-68.6%"
  },
  {
    "MOLECULE": "CN1CCN(CC2CC2)C(=O)c2cnc(N3CCOCC3)nc21",
    "INHIBITION": "26.3%"
  },
  {
    "MOLECULE": "CC1=Nc2c(c(=O)[nH]n2C2CCCCC2)C(c2cccnc2)S1 (stereo not given)",
    "INHIBITION": "14.2%"
  },
  {
    "MOLECULE": "Cn1nc(CN2CCCC2)c2c1CN(c1cnccn1)CC2",
    "INHIBITION": "54.8%"
  },
  {
    "MOLECULE": "Cc1ccc2[nH]c(C3CCN(C)CC3)nc2c1",
    "INHIBITION": "-17.9%"
  },
  {
    "MOLECULE": "CN(C)Cc1noc2c1CN(C(=O)c1ccncc1)CC2",
    "INHIBITION": "39.4%"
  },
  {
    "MOLECULE": "Cn1ccnc1SCCNc1cc(N2CCOCC2)ncn1",
    "INHIBITION": "-7.85%"
  },
  {
    "MOLECULE": "Cc1nn(C)cc1-c1cc(C(=O)N2CCc3ncc(Cl)cc3C2)no1",
    "INHIBITION": "38.65%"
  },
  {
    "MOLECULE": "CC(C)Nc1ncnc2c1CCN(C(=O)N1CCOCC1)CC2",
    "INHIBITION": "75.4%"
  },
  {
    "MOLECULE": "CC(C)Nc1ncnc2c1CCN(c1cc(C(F)(F)F)ncn1)CC2",
    "INHIBITION": "60.3%"
  },
  {
    "MOLECULE": "CN(CC(=O)N1CCN(CC(C)(C)O)CC1)c1ccc(Cl)cn1",
    "INHIBITION": "25%"
  },
  {
    "MOLECULE": "CCNC(=O)C1(Cc2cc(-c3ccc(C)cc3)no2)CCCN(C)C1 (stereo not given)",
    "INHIBITION": "23%"
  },
  {
    "MOLECULE": "c1cnc(N2CCc3onc(CN4CCCC4)c3C2)cn1",
    "INHIBITION": "37.5%"
  },
  {
    "MOLECULE": "Cc1ccc2[nH]c([C@H]3CCN(CC4CCCCC4)C3)nc2c1",
    "INHIBITION": "51.9%"
  },
  {
    "MOLECULE": "Cn1nc(Cn2ccnc2)c2c1CN(c1ncccn1)C2",
    "INHIBITION": "3.88%"
  },
  {
    "MOLECULE": "COCCN1CCC(c2nc3cc(C)ccc3[nH]2)CC1",
    "INHIBITION": "15.5%"
  },
  {
    "MOLECULE": "C=C(C)Cn1cc(C(N)=O)nc1C1CC1",
    "INHIBITION": "-6.67%"
  },
  {
    "MOLECULE": "Cn1nc(COCC2CC2)c2c1CCN(Cc1ccco1)C2",
    "INHIBITION": "-12.2%"
  }
]

Reference for the values: ChEMBL document CHEMBL4513216
